- Target Or System: human ether-à-go-go-related gene (hERG) potassium channel (human)
- Experiment Notes: primary screen, population patch clamp on CHO cells stably expressing hERG; higher = less effect of the substance
About 2,200 (0.71%) of roughly 310,000 compounds showed an effect of 50% or more. The effect is printed as a negative number. The list comes from a sample in which strong results are over-represented; it also holds close analogues and randomly drawn compounds.
Returns MET if the recorded hERG current change (%, negative = inhibition) at 1uM is greater than or equal to 10%, and NOT MET otherwise.

Illustrative cases are given below, each with its answer.
In [3]: df
Out[3]:
                                     smiles  group_label
0           Cc1nn2cc(-c3ccc(Cl)cc3)cnc2c1Cl          MET
1  C/C(Cn1nc([N+](=O)[O-])cc1C)=N\NC(=O)COc1ccc(Cl)cc1Cl      NOT MET
2  O=S(=O)(c1cccs1)N1CCN(c2ccnc3cc(Cl)ccc23)CC1      NOT MET
3     CCOC(=O)/C(C#N)=C1/C=CN(c2ccccc2)C=N1      NOT MET
4  O=S(=O)(c1ccc(Br)s1)N1CCN(c2ccnc3cc(Cl)ccc23)CC1      NOT MET
5  Cc1cccc(C)c1Nc1nnc(SCC(=O)c2ccc(Br)s2)s1          MET

## Input Reported hERG current change (%, negative = inhibition) at 1uM reaches at least 10% for CCN1C(=O)c2ccc(C(=O)NCc3ccco3)cc2C1=O ?
## Output MET

## Input Check this compound for hERG current change (%, negative = inhibition) at 1uM at or above 10%: Br.CC(C)(C)C(=O)CN1C2=NCCN2c2ccccc21
## Output NOT MET

## Input Can COc1ccc(S(=O)(=O)N(C)C)cc1NC(=O)CCCSc1ccccc1 be said to have hERG current change (%, negative = inhibition) at 1uM at or above 10%?
## Output NOT MET

###

- Target Or System: human ether-à-go-go-related gene (hERG) potassium channel (human, UniProt Q12809)
- Sequence (Q12809 whole entry, looked up): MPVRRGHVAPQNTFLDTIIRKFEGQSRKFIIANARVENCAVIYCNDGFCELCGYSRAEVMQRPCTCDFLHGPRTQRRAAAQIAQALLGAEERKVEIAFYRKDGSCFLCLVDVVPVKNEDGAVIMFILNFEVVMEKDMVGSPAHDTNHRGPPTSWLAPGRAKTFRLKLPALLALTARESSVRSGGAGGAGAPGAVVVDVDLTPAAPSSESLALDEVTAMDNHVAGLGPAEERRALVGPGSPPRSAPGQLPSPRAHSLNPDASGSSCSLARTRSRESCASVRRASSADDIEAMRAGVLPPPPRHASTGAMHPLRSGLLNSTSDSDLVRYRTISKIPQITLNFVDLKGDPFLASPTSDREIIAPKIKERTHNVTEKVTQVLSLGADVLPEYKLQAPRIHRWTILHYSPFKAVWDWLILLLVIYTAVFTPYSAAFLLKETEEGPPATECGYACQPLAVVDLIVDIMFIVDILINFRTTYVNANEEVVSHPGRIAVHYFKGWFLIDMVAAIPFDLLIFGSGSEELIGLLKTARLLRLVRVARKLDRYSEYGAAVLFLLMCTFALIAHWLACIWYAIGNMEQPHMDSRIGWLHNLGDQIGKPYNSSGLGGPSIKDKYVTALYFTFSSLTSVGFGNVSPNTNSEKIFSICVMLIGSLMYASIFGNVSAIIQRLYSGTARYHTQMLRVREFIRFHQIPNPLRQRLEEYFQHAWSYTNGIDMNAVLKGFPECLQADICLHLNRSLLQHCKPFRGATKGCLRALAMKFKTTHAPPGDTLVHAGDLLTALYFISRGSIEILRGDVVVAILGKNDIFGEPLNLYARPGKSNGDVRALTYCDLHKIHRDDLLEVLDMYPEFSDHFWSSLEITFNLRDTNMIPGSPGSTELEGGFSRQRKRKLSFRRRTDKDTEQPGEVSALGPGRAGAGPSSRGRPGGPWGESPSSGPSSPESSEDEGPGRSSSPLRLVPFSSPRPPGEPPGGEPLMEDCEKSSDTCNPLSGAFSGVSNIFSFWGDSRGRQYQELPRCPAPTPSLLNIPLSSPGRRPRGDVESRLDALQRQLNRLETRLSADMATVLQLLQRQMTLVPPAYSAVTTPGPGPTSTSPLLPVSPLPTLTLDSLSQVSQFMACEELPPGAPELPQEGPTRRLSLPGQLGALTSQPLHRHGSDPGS
- Experiment Notes: primary screen, population patch clamp on CHO cells stably expressing hERG; higher = less effect of the substance
Out of some 310,000 compounds screened, about 2,200 (0.71%) showed an effect of 50% or more. Effects have a minus sign here. Shown is part of a subset that was picked to be rich in strong results.
Measure Name: hERG current change (%, negative = inhibition) at 1uM (%)
Your answer should be a plain number; it is taken to be in %.

Illustrative cases are given below, each with its answer.
In [3]: df
Out[3]:
                                   compound  units  recorded_value
0  Cc1ccc(S(=O)(=O)N2CCOCC2)cc1NC(=O)COC(=O)CNC(=O)c1ccc(C(C)(C)C)cc1      %            20.2
1  OCCC1CN(Cc2cccc3nonc23)CCN1Cc1ccsc1 (centres unmarked)      %           -15.7
2  O=C(Cn1nc(C(=O)O)c2ccccc2c1=O)Nc1ccc2c(c1)C(=O)c1ccccc1C2=O      %            6.96

## Input Return reported hERG current change (%, negative = inhibition) at 1uM; argument: O=C(CN1C(=O)/C(=C/c2ccccc2)SC1=S)Nc1cccnc1
## Output 9.4

## Input Would you kindly share the measured hERG current change (%, negative = inhibition) at 1uM for Cc1cc2c(cc1C)C(c1ccccc1Br)CC(=O)N2 (centres unmarked) ?
## Output 13.7

###

- Target Or System: human ether-à-go-go-related gene (hERG) potassium channel (human, UniProt Q12809)
- Experiment Notes: primary screen, population patch clamp on CHO cells stably expressing hERG; higher = less effect of the substance
Among all 310,000 compounds or so, about 2,200 (0.71%) showed an effect of 50% or more. The effect is printed as a negative number. The sample as a whole holds a higher share of strong results than the screen did.
Measure Name: hERG current change (%, negative = inhibition) at 1uM

>>> print(df.to_string())
                                   compound                          target_or_system  recorded_value
0  O=C(NCc1cc(C(F)(F)F)cc(C(F)(F)F)c1)C1CC(c2cccc(F)c2)=NO1 (centres unmarked)  human ether-à-go-go-related gene (hERG) potassium channel (human, UniProt Q12809)           2.14%

## Input Requested read-out: hERG current change (%, negative = inhibition) at 1uM. Entry: CN1C(C(=O)NCc2ccc(OC(F)(F)F)cc2)CC2Cn3c(nc4cc5ccccc5cc43)C21 (centres unmarked)
## Output -14.7%

## Input If you can, please state the reported hERG current change (%, negative = inhibition) at 1uM value of CCn1c(C)[n+](CC)c2ccc(C(=O)N(C)c3ccccc3)cc21.[I-] .
## Output 25.5%

## Input Could you share which hERG current change (%, negative = inhibition) at 1uM value was measured for CN1C(C(=O)NCc2ccc(OC(F)(F)F)cc2)CC2Cn3c(nc4ccccc43)C21 (centres unmarked) ?
## Output -74.9%

###

Overview of reported hERG current change (%, negative = inhibition) at 1uM across a group of compounds:
- Target Or System: human ether-à-go-go-related gene (hERG) potassium channel (human)
- Experiment Notes: primary screen, population patch clamp on CHO cells stably expressing hERG; higher = less effect of the substance
Screen size: about 310,000 compounds; about 2,200 (0.71%) showed an effect of 50% or more. Effects have a minus sign here. This excerpt belongs to a sample that is enriched for strong results.
Note: a bare number is incomplete; add the unit.

In [3]: df
Out[3]:
                                   compound                          target_or_system  recorded_value
0  Cc1nc2c(-c3ccccc3)c[nH]n2c(=O)c1Cc1ccccc1  human ether-à-go-go-related gene (hERG) potassium channel (human)           13.3%
1    O=C(CSc1ncn(-c2ccccc2)n1)N1CCc2ccccc21  human ether-à-go-go-related gene (hERG) potassium channel (human)           1.39%
2  Cc1c(N=C/C=C2/N(C)c3ccccc3C2(C)C)c(=O)n(-c2ccccc2)n1C  human ether-à-go-go-related gene (hERG) potassium channel (human)          -5.46%
3  O=C(COC(=O)c1c[nH]c2ccccc12)Nc1ccc(F)cc1  human ether-à-go-go-related gene (hERG) potassium channel (human)          -1.51%
4         CCNC(=O)c1ccc(CSc2nc3ccccc3s2)cc1  human ether-à-go-go-related gene (hERG) potassium channel (human)           11.4%
5      Cc1ccccc1N=C/C=C1\N(C)c2ccccc2C1(C)C  human ether-à-go-go-related gene (hERG) potassium channel (human)          -51.2%
6     CN1/C(=C/C=C(C#N)C#N)C(C)(C)c2ccccc21  human ether-à-go-go-related gene (hERG) potassium channel (human)           10.9%
7  CN(C)c1ccc(N=C/C=C2\N(C)c3ccccc3C2(C)C)cc1  human ether-à-go-go-related gene (hERG) potassium channel (human)          -84.7%

## Input Record request: hERG current change (%, negative = inhibition) at 1uM value, item COc1ccc(CCNC(=O)c2c(O)c3cccc4c3n(c2=O)CC4)cc1OC
## Output -6.66%

## Input What value of hERG current change (%, negative = inhibition) at 1uM has been recorded for this entry: CCC(C)N1C(=O)CCC1C(=O)N1CCN(c2ccccc2F)CC1 (stereo not shown)
## Output 17%

###

Reported hERG current change (%, negative = inhibition) at 1uM values for the following compounds.
- Target Or System: human ether-à-go-go-related gene (hERG) potassium channel (human, UniProt Q12809)
- Experiment Notes: primary screen, population patch clamp on CHO cells stably expressing hERG; higher = less effect of the substance
In all, about 310,000 compounds went through this assay and about 2,200 (0.71%) showed an effect of 50% or more. The effect is printed as a negative number. The list comes from a sample in which strong results are over-represented; it also holds close analogues and randomly drawn compounds.
Respond with the bare value in %.

In [3]: df
Out[3]:
                                   compound  units  recorded_value
0  O=C(C1CCN(C2CC(=O)N(c3ccc(Cl)cc3)C2=O)CC1)N1CCOCC1 (stereo not shown)      %            2.01
1  CCOc1ccc(CN2CCCC(CNC(=O)c3ccc(F)cc3)C2)cc1CO (stereo not shown)      %           -50.5
2  Cc1cc(C(=O)N2CC(C)CC(C)C2)n(-c2ccccc2)n1 (stereo not shown)      %            16.6
3  NC(=O)c1nsc(C(=O)N(c2ccccc2F)C(C(=O)NCc2ccccc2)c2ccc(O)cc2)c1N (stereo not shown)      %            8.51
4  COc1nc(OC)nc(N2CCC(C(=O)NCc3ccco3)CC2)n1      %          -0.721
5  O=C(NCc1ccco1)C1CCN(c2nc3ccccc3n2Cc2ccccc2F)CC1      %           -62.8
6    CSc1ccc(CN2CCC(CO)(CCOc3ccccc3)CC2)cc1      %           -81.2
7        OCC1(CCOc2ccccc2)CCN(Cc2ccncc2)CC1      %          -0.954

## Input Tell me the measured hERG current change (%, negative = inhibition) at 1uM of Cc1cc(C)nc(N2CCC(C(=O)NCc3ccccc3F)CC2)n1 , please.
## Output 1.75

## Input Consider the compound COC(=O)c1ccc(CN2CCC(CO)(Cc3cccc(OC)c3)CC2)cc1 and give its measured hERG current change (%, negative = inhibition) at 1uM.
## Output -45.3
